- Assay Name: qHTS assay to identify small molecule that activate the aryl hydrocarbon receptor (AhR) signaling pathway - cell viability counter screen (AID 743086);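 note: HepG2 liver cells carrying the AhR DRE luciferase reporter; % is set by controls: 0 for no effect and ±100 for the full control effect; nearly all actives have a fitted effect of over 45% in size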
- Measurement Context: HepG2-AhR-luc viability, CellTiter-Fluor, 24 h; series mostly up to 70.3 µM
Records with an inconclusive call do not appear. Active and inactive are the calls of the source. Calls come from the whole dose curve; as a rule, active = well fitted cell-killing curve with a large enough effect in the repeat runs; inconclusive = weak or mixed curves, or effect the other way; inactive = flat fitted curve, though single readings scatter.
Parameter Measured: outcome

[[record]]
molecule = "CC1=C(O)C(=O)C(C)O1 (stereo not drawn)"
measured = "inactive"

[[record]]
molecule = "O=C(O)c1cc2ccccc2nc1C(=O)O"
measured = "inactive"

[[record]]
molecule = "CCCC(=O)OCCC(C)CCC=C(C)C (stereo not drawn)"
measured = "inactive"


---

- Assay Name: qHTS assay to identify small molecule agonists of the hypoxia (HIF-1) signaling pathway - cell viability counter screen (AID 1224844); note: % is set by controls: 0 for no effect and ±100 for the full control effect; nearly all actives have a fitted effect of over 50% in size
- Measurement Context: HRE-bla ME-180 viability, CellTiter-Glo luminescence, 17 h; series mostly up to 76.8 µM
Records with an inconclusive call do not appear. The source made the active and inactive calls. Calls come from the whole dose curve.
Parameter Measured: activity change, negative = cytotoxicity

Solved cases below.
[[record]]
compound = "NCc1ccc(S(N)(=O)=O)cc1"
measured = "inactive"

[[record]]
compound = "CCCCOCCOC(=O)COc1ccc(Cl)cc1Cl"
measured = "inactive"

[[record]]
compound = "CN1C[C@@H]2C[C@H]1CN2c1cc2c(cc1F)c(=O)c(C(=O)O)cn2C1CC1"
measured = "12.6% [at 15.8 µM] (inactive)"

[[record]]
compound = "CCCC(=O)OCCC(C)CCC=C(C)C (stereo not drawn)"
measured = "inactive"

[[record]]
compound = "CC(C)COC(=O)c1ccccc1"
measured = "inactive"

[[record]]
compound = "CCC(=O)Oc1ccc2c(c1)CC[C@@H]1[C@@H]2CC[C@@]2(C)[C@H]1C[C@@H](OC(=O)CC)[C@@H]2OC(=O)CC"
measured = "inactive"

[[record]]
compound = "CN(C)CCOC(=O)C(c1ccccc1)C1(O)CCCC1 (stereo not drawn)"
measured = "inactive"


Next item in the queue.
Input line: For `COC(=O)CCCCC(=O)O` , what is its reported activity change, negative = cytotoxicity?
Output line: inactive

---

- Measurement Target: Cytochrome P450 1A2 (Homo sapiens)
- Assay Name: Cytochrome P450 Family 1 Subfamily A Member 2 (CYP1A2) small molecule antagonists: luciferase reporter qHTS assay (AID 1671199); note: nearly all actives have a fitted effect of over 50% in size
- Measurement Context: P450-Glo CYP1A2 enzyme, luciferin luminescence, 1 h; series mostly up to 115 µM
Results filed as inconclusive are left out. Activity calls are given as the source filed them. Calls follow the shape of the dose curve; as a rule, active = well fitted inhibition curve with a large enough effect in the repeat runs; inconclusive = weak or mixed curves; inactive = no such curve, though single readings can be large or run the other way.
Write down one outcome, taken from active, inactive

// below: answered compounds
[[record]]
compound = "CCCCOCC(C)O (centres undefined)"
category = "inactive"

[[record]]
compound = "CCCCSCCCC"
category = "inactive"

[[record]]
compound = "O=C1NC(c2ccccc2)(c2ccccc2)C(=O)N1COP(=O)(O)O"
category = "inactive"


Input line: // return assay outcome for `COc1cc(OC)nc(O[C@H](C(=O)O)C(OC)(c2ccccc2)c2ccccc2)n1`
Output line: inactive

Input line: For `CC/C(C)=N\O[Si](C)(O/N=C(\C)CC)O/N=C(\C)CC` , which call appears in the assay record?
Output line: active

Input line: Give the logged outcome of this assay for the following compound: `CCCCCCCCCOC(=O)c1ccccc1C(=O)OCCCCCCCCC`
Output line: active

Input line: What call does the record list for `CC(C)CO` ?
Output line: inactive

Input line: GET /call?item= `C=CCCCC` returns the recorded outcome of this test.
Output line: inactive

Input line: So what was the verdict on `O=Cc1cc2ccccc2o1` in this test?
Output line: active

---

- Measurement Target: Thyrotropin receptor (Homo sapiens)
- Assay Name: qHTS assay to identify small molecule antagonists of the thyroid stimulating hormone receptor (TSHR) signaling pathway (AID 1259385); note: % is set by controls: 0 for no effect and ±100 for the full control effect; nearly all actives have a fitted effect of over 20% in size
- Measurement Context: TSHR-HEK293 cAMP HTRF, TSH-stimulated antagonist mode; series mostly up to 92.4 µM
Records with an inconclusive call do not appear. Activity calls are given as the source filed them. Calls follow the shape of the full dose curve.
Parameter Measured: activity change, negative = inhibition

Previously resolved entries follow.
[[record]]
compound = "CC(C)=CCC/C(C)=C/COC=O"
parameter_measured = "activity change, negative = inhibition"
measured = "inactive"

[[record]]
compound = "COC(=O)c1ccccc1C(=O)O"
parameter_measured = "activity change, negative = inhibition"
measured = "inactive"

[[record]]
compound = "O=C(CCCl)NCCc1ccccc1"
parameter_measured = "activity change, negative = inhibition"
measured = "inactive"

[[record]]
compound = "OC1OCCOC1O (stereo not drawn)"
parameter_measured = "activity change, negative = inhibition"
measured = "inactive"


Need activity change, negative = inhibition for each of these compounds.
1. O=C(CN1CCNCC1)NC1CCCCC1
2. CC(=O)OCC(=O)Nc1cc(C#N)cc(NC(=O)COC(C)=O)c1Cl
3. CC(=O)CC(=O)OC(C)(C)C
4. COc1cc2c(cc1OC)CN(C(=O)[C@H](C)N[C@@H](CCc1ccccc1)C(=O)O)[C@H](C(=O)O)C2
5. CC(=O)O[C@@H]1CC2CCC1(C)C2(C)C (stereo partly drawn)
6. O=C1NC(c2ccccc2)(c2ccccc2)C(=O)N1COP(=O)(O)O

Output line:
inactive
inactive
inactive
inactive
inactive
inactive

---

- Assay Name: qHTS assay to identify small molecule agonists of the estrogen related receptor (ERR) signaling pathway from Tox21 library (AID 1224849); note: % is set by controls: 0 for no effect and ±100 for the full control effect; nearly all actives have a fitted effect of over 15% in size
- Measurement Context: ERR reporter cell line, ONE-Glo luciferase, 18 h; at 92.4 µM (top of the series) unless noted
Activity calls are given as the source filed them. Calls come from the whole dose curve.
Give measured activity change, positive = activation for each item. Keep answers brief.

// worked examples, activity change, positive = activation included
[[record]]
compound = "CC1c2ccccc2CN1NC(=O)c1ccc(Cl)c(S(N)(=O)=O)c1 (centres undefined)"
measured = "3.24% [at 42.5 µM] (inactive)"

[[record]]
compound = "COc1cc2c(cc1OC)C(=O)C(CC1CCN(Cc3ccccc3)CC1)C2 (centres undefined)"
measured = "2.42% [at 42.5 µM] (inactive)"

[[record]]
compound = "CC(C)(CO)C(O)C(=O)NCCCO (centres undefined)"
measured = "0.356% (inactive)"


Now consider the entry below.
Input line: Recorded activity change, positive = activation for `c1ccc(-c2nn[nH]n2)cc1` , please?
Output line: 8.29% (inactive)

---

- Assay Name: qHTS assay to identify small molecule antagonists of the retinoid-related orphan receptor gamma (ROR-gamma) signaling pathway - cell viability counter screen (AID 1159520); note: % is set by controls: 0 for no effect and ±100 for the full control effect; nearly all actives have a fitted effect of over 50% in size
- Measurement Context: Tet-on RORgamma CHO cells viability, ATP luminescence, 16 h; series mostly up to 92.4 µM
Inconclusive results are not listed. The source made the active and inactive calls. The call rests on the fitted dose curve; in most records, active means well fitted cell-killing curve with a large enough effect in the repeat runs; inconclusive means weak or mixed curves, or effect the other way; inactive means no such curve, though single readings can be large or run the other way.
Parameter Measured: activity, negative = cytotoxicity

[[record]]
compound = "CN(C)CCCO[C@@H]1[C@H]2OC(C)(C)O[C@H]2O[C@@H]1C(O)CO (stereo partly drawn)"
measured = "inactive"

[[record]]
compound = "O=C1c2ccccc2C(=O)c2cc(Cl)ccc21"
measured = "5.88% [at 8.39 µM] (inactive)"

[[record]]
compound = "O=C1CCC(=O)N1Cl"
measured = "inactive"


---

- Measurement Target: Cytochrome P450 1A2 (Homo sapiens) (UniProt P05177)
- Sequence (P05177 whole entry, looked up): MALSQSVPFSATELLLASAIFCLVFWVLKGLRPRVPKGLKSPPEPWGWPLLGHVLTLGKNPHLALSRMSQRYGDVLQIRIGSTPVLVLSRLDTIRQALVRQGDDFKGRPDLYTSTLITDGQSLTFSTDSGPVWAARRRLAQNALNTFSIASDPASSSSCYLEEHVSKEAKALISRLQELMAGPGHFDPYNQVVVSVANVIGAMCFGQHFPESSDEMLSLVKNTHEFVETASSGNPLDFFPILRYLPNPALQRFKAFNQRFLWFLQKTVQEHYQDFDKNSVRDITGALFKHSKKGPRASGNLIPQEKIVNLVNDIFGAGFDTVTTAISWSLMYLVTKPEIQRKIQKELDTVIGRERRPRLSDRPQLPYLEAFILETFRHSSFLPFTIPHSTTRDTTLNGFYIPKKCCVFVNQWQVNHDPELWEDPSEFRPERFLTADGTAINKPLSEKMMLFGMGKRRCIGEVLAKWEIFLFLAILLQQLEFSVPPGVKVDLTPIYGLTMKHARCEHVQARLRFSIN
- Assay Name: Cytochrome P450 Family 1 Subfamily A Member 2 (CYP1A2) small molecule antagonists: luciferase reporter qHTS assay (AID 1671199); note: nearly all actives have a fitted effect of over 50% in size; note: potency is the fitted concentration of half-maximal effect
- Measurement Context: P450-Glo CYP1A2 enzyme, luciferin luminescence, 1 h; series mostly up to 115 µM
Records with an inconclusive call do not appear. Calls of active or inactive are those of the source. The call rests on the fitted dose curve; in most records, active means well fitted inhibition curve with a large enough effect in the repeat runs; inconclusive means weak or mixed curves; inactive means no such curve, though single readings can be large or run the other way.
Parameter Measured: Potency

[[record]]
molecule = "CC1c2ccccc2CN1NC(=O)c1ccc(Cl)c(S(N)(=O)=O)c1 (stereo not drawn)"
measured = "inactive"

[[record]]
molecule = "CC12CCC(C1)C(C)(C)C2O (stereo not drawn)"
measured = "inactive"

[[record]]
molecule = "CCC(=O)c1c(O)cc(O)cc1O"
measured = "12.9 µM (active)"


---

- Assay Name: qHTS assay to test for compound auto fluorescence at 460 nm (blue) in HEK293 cell free culture (AID 720681); note: % is set by controls: 0 for no effect and ±100 for the full control effect
- Measurement Context: cell-free medium, autofluorescence 405/460 nm (blue); series mostly up to 91.3 µM
Activity calls are given as the source filed them. The call rests on the fitted dose curve; in most records, active means well fitted curve in the direction sought with a large enough effect in the repeat runs; inconclusive means weak or mixed curves; inactive means flat fitted curve, though single readings scatter.
Parameter Measured: fluorescence, % of fluorescent control

Worked cases, fluorescence, % of fluorescent control given:
[[record]]
compound = "CC1(C)O[C@H]2CC(=O)OC[C@]23[C@H]2CC[C@@]4(C)[C@H](c5ccoc5)OC(=O)[C@H]5O[C@]54[C@]2(C)C(=O)C[C@@H]13"
measured = "inactive"

[[record]]
compound = "CC(C)=CCC/C(C)=C/COC=O"
measured = "inactive"

[[record]]
compound = "CC/C=C\\CCOC(=O)c1ccccc1O"
measured = "inactive"

[[record]]
compound = "C=CCOC(=O)CCCCCC"
measured = "inactive"

[[record]]
compound = "CN(C)CCOC(=O)C(c1ccccc1)C1(O)CCCC1 (stereo not given)"
measured = "inactive"


For every record below, what is its fluorescence, % of fluorescent control?
1. CC1(C)Oc2ccc(C#N)cc2[C@@H](N2CCCC2=O)[C@@H]1O
2. CC(S)C(C)S (stereo not given)
3. C#CCN[C@@H]1CCc2ccccc21
4. CC(=O)CC(=O)Nc1ccc(C)cc1C
5. CCCCCc1cccc(=O)o1

Output line:
inactive
inactive
inactive
inactive
inactive

Dear colleague, could you send me fluorescence, % of fluorescent control for each of the items below? Thanks.
1. CCOc1cccc(N)c1
2. CC(N)CCCC(C)(C)O (stereo not given)
3. Cc1ccc(C(=O)O)cc1[N+](=O)[O-]

Output line:
["inactive", "inactive", "inactive"]

Please look at the items below and tell me fluorescence, % of fluorescent control for each one, in order.
1. CC(=O)CC(=O)OC(C)(C)C
2. CC(C)C1OCCN1CCOC(=O)NCCCCCCNC(=O)OCCN1CCOC1C(C)C (stereo not given)
3. CCCc1ccc(O)cc1
4. CC1=C(C(=O)O)N2C(=O)[C@@H](NC(=O)[C@H](N)c3ccccc3)[C@H]2SC1

Output line:
["inactive", "inactive", "inactive", "inactive"]

// each compound listed below needs its fluorescence, % of fluorescent control
1. N#CCC(=O)NN
2. C[C@]12CCC(=O)C=C1CC[C@H]1[C@@H]3CC[C@](O)(C(=O)CO)[C@@]3(C)C[C@H](O)[C@@]12F
3. C/C=C(\C)C(=O)OCCc1ccccc1

Output line:
1. inactive
2. inactive
3. inactive
